tested on: HCT-116 colon; assay: NCI tumour cell line growth inhibition, 48 h
Reported TGI is given for each of the following compounds.
experimental_readout: TGI

| compound | data_value |
| --- | --- |
| Cc1nc2sc(C(=O)Nc3cccc4ccccc34)c(N)c2cc1C(C)O (stereo not drawn) | > 50 µM |
| OCC(O)COc1ccc(Br)cc1 (stereo not drawn) | > 100 µM |
| COc1ccc(-c2cc(C(=O)Nc3cccc(C(F)(F)F)c3)[nH]c(=S)n2)cc1 | > 100 µM |

* * *

test system: SF-268 CNS; experiment: NCI tumour cell line growth inhibition, 48 h

| compound | relation_sign | TGI (µM) |
| --- | --- | --- |
| COc1ccc(-c2nc(-c3nc4ccc(F)cc4[nH]3)cc3c2[nH]c2ccccc23)cc1 | > | 100 |
| C[C@@H]1O[C@@H](O[C@H]2C[C@@H](O)[C@]3(CO)C4C(CC[C@]3(O)C2)[C@@]2(O)CC[C@H](C3=CC(=O)OC3)[C@@]2(C)C[C@H]4O)[C@H](O)[C@H](O)[C@H]1O (stereo partly drawn) | = | 0.0642 |
| C[C@]12CC[C@H](O)CC1=CC[C@@H]1[C@@H]2CC[C@]2(C)C(=O)/C(=C/c3cccc(OCCCn4ccnc4)c3)C[C@@H]12 | = | 55.6 |
